# credit: patent EP2608671B1

System: PC-3
Test: cells
Conditions: Homo sapiens, PC-3, 96 h, read-out: IC50 ± SEM (nM), PC-3
Text: The only compounds which belong to the invention are the ones falling under the scope of formula (XI). Cells were stained with SRB solution. Cells. […] Cells between the third and fifth passages were used for experiments. Cell growth inhibition studies. […] Cells were stained with sulphorhodamine B (SRB) solution.
Readout: IC50

In: Entry "COc1cc(C(=O)c2cnc(-c3ccccc3)s2)cc(OC)c1OC" needs its IC50 filled in; supply it.
Out: > 10000 nM

In: Return IC50 for the following compound: COc1cc(C(=O)c2cn(S(=O)(=O)c3ccccc3)c(-c3cc(OC)c(OC)c(OC)c3)n2)cc(OC)c1OC [11ea]
Out: > 10000 nM

In: Using known records, supply IC50 for Cc1ccc(C(=O)c2cn(S(=O)(=O)c3ccccc3)c(-c3ccccc3)n2)cc1 [11ah]
Out: > 10000 nM

In: Indicate its recorded IC50; the compound in question is "COc1cc(/C=C/c2csc(-c3ccccc3)n2)cc(OC)c1OC"
Out: > 10000 nM

In: Identify the reported IC50 for the following entry. "COc1cc(C(=O)Nc2csc(-c3ccccc3)n2)cc(OC)c1OC"
Out: > 10000 nM

In: State its IC50 for this compound: O=C(c1ccc(F)cc1)c1c[nH]c(-c2ccccc2C(F)(F)F)n1 [12ib]
Out: > 10000 nM

In: Specify reported IC50 for the compound shown: COc1cc(-c2nc(C(=O)c3ccc(F)cc3)cn2S(=O)(=O)c2ccccc2)cc(OC)c1OC [11eb]
Out: > 10000 nM

In: In one line, give reported IC50 of the entry "COc1ccc(-c2nc(C(=O)c3ccc(F)cc3)cn2C)cc1" .
Out: > 10000 nM

In: Please give measured IC50 of the following entry: COc1cc(C(=O)c2cn(S(=O)(=O)c3ccccc3)c(-c3ccccc3C(F)(F)F)n2)cc(OC)c1OC [11ia]
Out: > 10000 nM

In: Annotate the compound COc1ccc(C(=O)c2cn(S(=O)(=O)c3ccccc3)c(-c3ccccc3)n2)cc1 [11ab] with its measured IC50.
Out: > 10000 nM

In: Output IC50 of "c1ccc(Nc2nccn2C(c2ccccc2)(c2ccccc2)c2ccccc2)cc1"
Out: > 1000 nM
